# Test system: Human alphaherpesvirus 2
# ASSAY METHOD TEXT: Activity against herpes simplex virus 2 (HSV-2) strain G, was determined; No activity
# Type: functional, organism-based
Calls of active or inactive are those of the source. No cut-off for these calls is given here.
ENDPOINT: Antiviral activity against HSV-2

Some solved entries appear below for comparison.
CCOC(=O)/C=C/C=C/[C@H]1OC(n2ccc(=O)[nH]c2=O)[C@H](O)[C@@H]1O (stereo not given in full): inactive
CCOC(=O)/C=C\C=C\[C@H]1OC(n2ccc(=O)[nH]c2=O)[C@H](O)[C@@H]1O (stereo not given in full): inactive
CCOC(=O)/C=C/C=C/[C@H]1OC(n2cnc3c(N)ncnc32)[C@H](O)[C@@H]1O (stereo not given in full): inactive
CCOC(=O)/C=C\C=C\[C@H]1OC(n2cnc3c(N)ncnc32)[C@H](O)[C@@H]1O (stereo not given in full): inactive

Consider the additional molecule presented here.
Data request, read-out Antiviral activity against HSV-2, for Nc1ncnc2c1ncn2C1O[C@H](/C=C/C=C(Br)Br)[C@@H](O)[C@H]1O (stereo not given in full)
inactive

----------
Lab note: pKi readings collected with UniProt P23526 for the following molecules.
Sequence (P23526 whole entry): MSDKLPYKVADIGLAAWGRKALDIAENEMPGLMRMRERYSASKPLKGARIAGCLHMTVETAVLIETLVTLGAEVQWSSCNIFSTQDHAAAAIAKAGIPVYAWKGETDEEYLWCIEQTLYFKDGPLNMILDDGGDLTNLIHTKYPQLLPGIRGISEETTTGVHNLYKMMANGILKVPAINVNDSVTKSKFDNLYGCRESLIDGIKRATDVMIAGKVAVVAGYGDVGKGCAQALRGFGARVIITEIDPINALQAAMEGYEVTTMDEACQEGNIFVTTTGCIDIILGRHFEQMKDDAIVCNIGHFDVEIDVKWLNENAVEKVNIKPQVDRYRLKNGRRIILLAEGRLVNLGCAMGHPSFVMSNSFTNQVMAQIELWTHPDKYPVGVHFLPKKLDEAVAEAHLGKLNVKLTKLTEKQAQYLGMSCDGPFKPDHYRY
Numbers only, as −log10 of the molar value.

CCOC(=O)/C=C/C=C/[C@H]1OC(n2cnc3c(N)ncnc32)[C@H](O)[C@@H]1O (some centres not stated): 5.00

Consider the additional molecule presented here.
Data request, read-out pKi, for CCOC(=O)/C=C\C=C\[C@H]1OC(n2cnc3c(N)ncnc32)[C@H](O)[C@@H]1O (some centres not stated)
4.86

Origin of values: ChEMBL document CHEMBL1135471
